Below, each entry is listed with its recorded pIC50.
# TGT: CDK7/Cyclin H/MNAT1 (Homo sapiens, UniProt P50613)
# Construct: purchased Invitrogen PR6749B
# Sequence (P50613 whole entry): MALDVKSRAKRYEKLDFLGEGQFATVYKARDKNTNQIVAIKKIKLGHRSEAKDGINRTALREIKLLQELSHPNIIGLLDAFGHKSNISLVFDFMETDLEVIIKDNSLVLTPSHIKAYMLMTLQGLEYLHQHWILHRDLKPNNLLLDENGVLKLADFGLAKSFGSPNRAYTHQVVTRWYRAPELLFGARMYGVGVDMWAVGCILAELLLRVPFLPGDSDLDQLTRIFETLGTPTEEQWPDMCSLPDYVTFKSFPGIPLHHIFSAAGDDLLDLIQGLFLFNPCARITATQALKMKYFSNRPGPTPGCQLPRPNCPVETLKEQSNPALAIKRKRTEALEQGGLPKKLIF
# Sequence (P51946 whole entry partner): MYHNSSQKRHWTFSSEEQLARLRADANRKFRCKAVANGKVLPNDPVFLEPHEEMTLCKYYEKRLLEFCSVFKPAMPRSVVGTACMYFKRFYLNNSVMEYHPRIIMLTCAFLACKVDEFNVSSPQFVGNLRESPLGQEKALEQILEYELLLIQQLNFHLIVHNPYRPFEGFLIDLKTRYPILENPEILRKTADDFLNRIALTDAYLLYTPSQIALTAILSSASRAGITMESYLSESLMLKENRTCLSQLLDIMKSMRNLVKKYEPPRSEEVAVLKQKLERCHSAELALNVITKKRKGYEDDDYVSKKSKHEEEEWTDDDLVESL
# Sequence (P51948 whole entry partner): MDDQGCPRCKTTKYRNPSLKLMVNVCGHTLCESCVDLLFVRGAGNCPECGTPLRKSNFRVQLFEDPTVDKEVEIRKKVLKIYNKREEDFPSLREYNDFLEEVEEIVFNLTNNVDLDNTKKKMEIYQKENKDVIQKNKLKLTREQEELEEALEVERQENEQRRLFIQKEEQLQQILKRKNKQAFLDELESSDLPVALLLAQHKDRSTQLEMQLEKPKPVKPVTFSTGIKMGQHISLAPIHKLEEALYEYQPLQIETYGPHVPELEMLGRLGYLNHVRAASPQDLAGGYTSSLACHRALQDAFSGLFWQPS
# ASSAY DETAILS: Enzymatic assay for CDK7 (FRET based LANCE Ultra kinase assay)
# Assay type: biochemical
# EXPERIMENTAL SETUP: read-out: CDK7 enzymatic activity (IC50 activity range)
pIC50: −log10 of the molar value.
MEASURE NAME: pIC50

• CC(C)c1cnn2c(NCc3c(Cl)cccc3-c3ncc(C(C)(C)O)s3)nc(N3CCC(N)CC3)nc12 = > 7.00
• CC(C)c1cnn2c(NCc3c(Cl)cccc3-n3ccc(C(C)(C)O)n3)nc(Nc3cc[nH]c3)nc12 = < 6.00
• CC(C)c1cnn2c(NCc3ccccc3-n3cccn3)nc(N3CCc4ncccc4C3)nc12 = > 7.00
• CC(C)c1cnn2c(NCc3ccccc3-c3ccc4ccccc4n3)nc(N3CCOCC3)nc12 = > 7.00

---

# TGT: CDK5/p25 (Homo sapiens)
# Construct: purchased Invitrogen PR8543B
# Sequence (Q00535 whole entry): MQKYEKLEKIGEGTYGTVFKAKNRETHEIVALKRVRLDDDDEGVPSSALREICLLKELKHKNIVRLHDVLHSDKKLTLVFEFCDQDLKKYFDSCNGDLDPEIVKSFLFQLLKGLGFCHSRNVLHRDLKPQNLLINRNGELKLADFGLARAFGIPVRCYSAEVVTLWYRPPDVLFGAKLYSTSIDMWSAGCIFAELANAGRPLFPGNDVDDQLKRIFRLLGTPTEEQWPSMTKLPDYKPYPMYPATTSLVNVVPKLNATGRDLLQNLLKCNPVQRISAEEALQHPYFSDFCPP
# Sequence (Q15078 99-307 partner limits assumed): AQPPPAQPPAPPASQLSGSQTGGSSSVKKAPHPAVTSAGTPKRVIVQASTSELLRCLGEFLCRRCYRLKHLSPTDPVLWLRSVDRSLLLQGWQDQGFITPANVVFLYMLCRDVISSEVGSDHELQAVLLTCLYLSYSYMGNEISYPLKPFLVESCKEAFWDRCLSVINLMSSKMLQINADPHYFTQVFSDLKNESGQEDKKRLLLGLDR
# ASSAY DETAILS: Enzymatic assay for CDK5 (FRET based LANCE Ultra kinase assay)
# Format: biochemical
# EXPERIMENTAL SETUP: read-out: CDK5 enzymatic activity (IC50 range)
# Experimental: Enzymatic Binding Assay Protocol for CDK1, CDK2, CDK5 and CDK7 Inhibition activity of the respective compound on CDK kinase under Km value of ATP was tested in FRET based The LANCE® Ultra kinase assay (Perkin Elmer), which uses a ULight™-labeled peptide substrate and an appropriate Europium-labeled anti-phospho-antibody. […] Data was analyzed using XL Fit software.
Below, each entry is listed with its recorded IC50.
MEASURE NAME: IC50

- CC(C)c1cnn2c(NCc3ccccc3N3CCCC3)nc(N3CCC(N)CC3)nc12: 100 to 1000 nM
- CC(C)c1cnn2c(NCc3ccccc3-n3cccn3)nc(-c3cccc(C(=O)N4CCC(N)CC4)c3)nc12: > 1000 nM
- CC(C)c1cnn2c(NCc3ccccc3-n3cccn3)nc(N3CCC(C)(N)CC3)nc12: < 100 nM
- CC(C)c1cnn2c(NCc3ccccc3-c3cc4ccccc4[nH]3)nc(N3CCNC(=O)C3)nc12: > 1000 nM
- CC(C)c1cnn2c(NCc3ccccc3-n3cccn3)nc(N3CCN(C)CC3)nc12: 100 to 1000 nM
- Cc1ccc(-n2cccn2)cc1CNc1nc(N2CCC(N)CC2)nc2c(C(C)C)cnn12: 100 to 1000 nM

---

# TGT: CDK7/Cyclin H/MNAT1 (Homo sapiens)
# Construct: purchased Invitrogen PR6749B
# ASSAY DETAILS: Enzymatic assay for CDK7 (FRET based LANCE Ultra kinase assay)
# Format: biochemical
# EXPERIMENTAL SETUP: CDK7 over CDK5
MEASURE NAME: CDK5/CDK7: Selectivity of CDK7 inhibition over CDK5 inhibition

* CC(C)c1cnn2c(NCc3cccc4cccnc34)nc(N3CCC(N)CC3)nc12 [Compound 9] | C (C=less than 20 fold)
* CC(C)c1cnn2c(NCc3ccccc3Oc3ccccc3)nc(N3CCC(N)CC3)nc12 [Compound 56] | C (C=less than 20 fold)
* CC(C)c1cnn2c(NCc3ccc(Cl)c(-n4cccn4)c3)nc(N3CCC(N)CC3)nc12 [Compound 67] | C (C=less than 20 fold)
* CC(C)c1cnn2c(NCc3ccccc3-n3cc(N4CCNCC4)cn3)nc(N3CCC(N)CC3)nc12 [Compound 180] | C (C=less than 20 fold)
* CC(=O)Nc1ccc2[nH]c(-c3ccccc3CNc3nc(N4CCC(N)CC4)nc4c(C(C)C)cnn34)cc2c1 [Compound 116] | C (C=less than 20 fold)

---

# TGT: CDK2/Cyclin A (Homo sapiens, UniProt P24941)
# Construct: purchased Invitrogen PV6290
# ASSAY DETAILS: Enzymatic assay for CDK2 (FRET based LANCE Ultra kinase assay)
# Type: biochemical
# EXPERIMENTAL SETUP: read-out: CDK2 enzymatic activity (IC50 range)
pIC50: −log10 of the molar value.
MEASURE NAME: pIC50

- CC(C)c1cnn2c(NCc3ccccc3-c3ccc4ccccc4n3)nc(N3CCC(O)(CN)CC3)nc12: < 6.00
- CC(=O)NC1CCN(c2nc(NCc3ccccc3-c3cc4ccccc4[nH]3)n3ncc(C(C)C)c3n2)CC1: < 6.00
- CNC(=O)c1cc2cn(-c3ccccc3CNc3nc(N4CCC(N)CC4)nc4c(C(C)C)cnn34)nc2cc1C: 6.00 to 7.00
- CC(C)c1cnn2c(NCc3c(Cl)cccc3-n3ccc(C(C)(C)O)n3)nc(N3CCC(N)CC3)nc12: < 6.00
- CC(C)c1cnn2c(NCc3ccccc3-n3cccn3)nc(Nc3ccc(C4CCNCC4)cn3)nc12: < 6.00
- CC(C)c1cnn2c(NCc3cccc4cnn(C)c34)nc(N3CCC(N)CC3)nc12: 6.00 to 7.00
- CC(C)c1cnn2c(NCc3ccccc3-n3cc4ccc(C(F)(F)F)cc4n3)nc(N3CCC(N)CC3)nc12: < 6.00
- CC(C)c1cnn2c(NCc3c(Cl)cccc3C#N)nc(N3CCC(N)CC3)nc12: 6.00 to 7.00
- CC(C)c1cnn2c(NCc3ccccc3-n3cc(N4CCN(C)CC4)cn3)nc(N3CCC(N)CC3)nc12: 6.00 to 7.00
- Cc1cccc(-c2cc3ccccc3[nH]2)c1CNc1nc(N2CCC(N)CC2)nc2c(C(C)C)cnn12: < 6.00
- CC(C)c1cnn2c(NCc3c(Cl)cccc3-n3ccc(N4CCOCC4)n3)nc(N3CCC(N)CC3)nc12: < 6.00
- CC(C)c1cnn2c(NCc3ccccc3-c3cn4ccccc4n3)nc(N3CCC(N)CC3)nc12: > 7.00
- CC(C)c1cnn2c(NCc3c(Cl)cccc3C(C)(C)O)nc(N3CCC(N)CC3)nc12: < 6.00
- CC(C)c1cnn2c(NCc3ccccc3-c3cccs3)nc(N3CCC(N)CC3)nc12: 6.00 to 7.00
- CC(C)c1cnn2c(NCc3ccccc3-c3ccc4[nH]ncc4c3)nc(N3CCC(N)CC3)nc12: > 7.00
- CC(C)c1cnn2c(NCc3ccccc3-n3ccc(C(C)(C)O)n3)nc(NCC3CCNCC3)nc12: < 6.00

---

# TGT: CDK2/Cyclin A (Homo sapiens, UniProt P24941)
# Construct: purchased Invitrogen PV6290
# ASSAY DETAILS: Enzymatic assay for CDK2 (FRET based LANCE Ultra kinase assay)
# Format: biochemical
# EXPERIMENTAL SETUP: read-out: CDK2 enzymatic activity (IC50 range)
pIC50: −log10 of the molar value.
MEASURE NAME: pIC50

- CC(C)c1cnn2c(NCc3ccccc3-n3cc4cc(C(=O)N5CCCC5)ccc4n3)nc(N3CCC(N)CC3)nc12 [Compound 147]: < 6.00
- CC(C)c1cnn2c(NCc3ccccc3-c3ccc4[nH]c(=O)[nH]c4c3)nc(N3CCC(N)CC3)nc12 [Compound 140]: 6.00 to 7.00
- CC(C)c1cnn2c(NCc3ccccc3-c3nc4ccccc4o3)nc(N3CCC(N)CC3)nc12 [Compound 97]: 6.00 to 7.00
- CC(C)c1cnn2c(NCc3cccc4ccncc34)nc(N3CCC(N)CC3)nc12 [Compound 31]: > 7.00
- CC(C)c1cnn2c(NCc3ccccc3-c3cc4cccc(NC(=O)C5CC5)c4[nH]3)nc(N3CCC(N)CC3)nc12 [Compound 144]: 6.00 to 7.00
- CC(C)c1cnn2c(NCc3c(Cl)cccc3-c3cc(C(C)(C)O)n(C)n3)nc(N3CCC(N)CC3)nc12 [Compound 244]: < 6.00
- CC(C)c1cnn2c(NCc3ccccc3-n3cc4c(n3)CCOC4)nc(N3CCC(N)CC3)nc12 [Compound 133]: 6.00 to 7.00
- CC(C)c1cnn2c(NCc3ccccc3-c3cc4ccccc4[nH]3)nc(N3CCC(N)(CO)CC3)nc12 [Compound 129]: 6.00 to 7.00
- CC(C)c1cnn2c(NCc3cccc(-n4cccn4)c3)nc(N3CCC(N)CC3)nc12 [Compound 47]: 6.00 to 7.00
- CC(C)c1cnn2c(NCc3ccccc3-n3cccn3)nc(-c3ccc(C(=O)N4CCC(N)CC4)cc3)nc12 [Compound 172]: 6.00 to 7.00
- CC(C)c1cnn2c(NCc3ccccc3-c3ccc4ccccc4n3)nc(NC[C@H]3CCNC[C@@H]3O)nc12 [Compound 225]: 6.00 to 7.00
- CC(C)c1cnn2c(NCc3ccccc3-c3ccc4ccccc4n3)cc(N3CCC(N)CC3)nc12 [Compound 73]: < 6.00
- CC(C)c1cnn2c(NCc3ccccc3-n3cccn3)nc(-c3ccc(Cl)c(OC4CCNCC4)c3)nc12 [Compound 173]: < 6.00
- CC(C)c1cnn2c(NCc3ccccc3-c3ccc4ccccc4n3)cc(NCC3(O)CCNCC3)nc12 [Compound 208]: > 7.00
- CC(C)c1cnn2c(NCc3cccc(Oc4ccccc4)c3)nc(N3CCC(N)CC3)nc12 [Compound 51]: < 6.00
